Taken from patent US20260258115A1.

The entries below come with measured pKd values attached.
Biological target: T1, RSV prefusion F (preF), subtype B (respiratory syncytial virus subtype B)
T1 construct: also called Prefusion subtype B
Experiment: BLI, IgG
# pKd = -log10(concentration in molar units)

Reference set (2 entries):
ADI-24835 (antibody, V domains shown, full-length IgG) VH: EVQLVESGGGLVKPGGSLRLSCAASGFPFSTSSMNWVRQAPGKGLEWVSSISSSSSYIDYADSVKGRFTISRDNAKNSLYLQMNSLRAGDTAVYYCARVPRSDWYYFDYWGQGTLVTVSS VL: QSVVTQPPSVSGAPGQRVTISCTGSSSNIGAGYDVHWYQQLPGTAPKFLIYDNKYRPSGVPDRFSGSKSGTSASLAITGLQAEDEADYYCQSYDSSLSGYVFGTGTKLTVL; 8.26
ADI-14392 (antibody, V domains shown, full-length IgG; also called Ab 59) VH: EVQLLESGAEVKKPGSSVKVSCKASGGTFSSYGISWVRQAPGQGLEWMGGIIPIFGTSNYAQKFQGRVTITADESTSTAYMELSSLRSEDTAVYYCALDSSGRARYYAMDVWGQGTTVTVSS VL: DIQVTQSPATLSLSPGERATLSCRASQSVSSYLAWYQQKPGQAPRLLIYDASNRATGIPARFSGSGSGTDFTLTISSLEPEDFAVYYCQQRNNWPPTFGPGTKVEIK; 7.14

Any idea what pKd was measured for ADI-14375 (antibody, V domains shown, full-length IgG; also called Ab 43) VH: EVQLVESGGGLVQPGGSLRLSCAVSGFTFSNYAVSWVRQAPGKGLEWVSGISGSGGTTYYVDSVKGRFTVSRDNSKNTLFLQLNSLKAEDTAVYYCAKDWGYSGGRPYFDYWGQGTLVTVSS VL: QSVLTQPPSVSGAPGQRVTISCTASSSNIGPIYDVHWYQQLPGTGPKLLIYGNNNRPSGVPDRFSGSKSGTSASLAITGLQAEDEADYYCQSYDTSLSVVFGGGTKLTVL ? 8.49
